Protocol Notes: in-vivo pharmacokinetic study on SD rats, intravenous and intranasal administration
Measurement Context: male, rat, plasma, other: intranasal, IN@2 mg/kg, read-out: Area under curve AUC
Recorded AUC for the following molecules

Molecule	AUC [ng·h/mL]
Cc1cc(C[C@@H](NC(=O)N2CCC(c3cc4c([nH]c3=O)SCC4)CC2)C(=O)N2CCN(C3CCN(C)CC3)CC2)cc2cn[nH]c12 [Example 8]	626
Cc1cc(C[C@@H](NC(=O)N2CCC(c3cc4ccccc4[nH]c3=O)CC2)C(=O)N2CCN(C3CCN(C)CC3)CC2)cc2cn[nH]c12 [Zavegepant, zavegepant, reference compound]	385
